- System: MALME-3M melanoma
- Method Summary: NCI-60 one-dose screen, 48 h
- Measurement Parameters: 10 µM unless noted
- Experimental: Cells are grown in 96 well plates and exposed to the test compound for 48 hours. Compounds are tested at a single concentration, which is 10^-5 M for most compounds. The reported endpoint is percent growth (GI% or GIPRCNT), where numbers from 0 - 100% represent growth inhibition, and numbers from -100% - 0 represent cell death. For example, a value of 40 represents 60% growth inhibition. A value of 0 means no net growth occurred over the course of the experiment. […]
The panel holds about 83,000 compounds, 20% with a hit somewhere; the sample as a whole holds those more often. Activity calls are given as the source filed them. How the source made its calls: active means growth percent below 10; inactive means the rest.
Entry note: the call must match one of Yes for active, No for inactive

- Compound: "Cc1cccc(/C=C2\\N=C(c3ccccc3)N(c3ccc(S(N)(=O)=O)cc3)C2=O)c1"
  Category: "No"
- Compound: "CC1(C(=O)O)CCC(N)(C(=O)O)C1(C)C (centres undefined)"
  Category: "No"
- Compound: "c1ccc(-c2n[nH]c(-c3ccccn3)n2)nc1"
  Category: "No"
- Compound: "C=C(CC(=O)OC)C(C)=O"
  Category: "No"
- Compound: "CC1(C)OC2[C@@H](CNC(=O)NC(=O)NC(=O)CI)O[C@@H](n3cnc4c(NC(=O)Nc5ccccc5)ncnc43)[C@H]2O1 (some centres undefined)"
  Category: "Yes"

Task: What outcome does the record of this test show for "O=C(NCCO)c1cccnc1" ?
Result: No

Task: What outcome does the record of this test show for "Nc1ccc2c(c1)Cc1cc(NC(=O)C(F)(F)F)ccc1-2" ?
Result: No

Task: What outcome does the record of this test show for "Cc1ncc(C(=O)Nc2ccc(CN3CCN(C)CC3)c(C(F)(F)F)c2)cc1C#Cc1c(N)ncc2ccc(C#N)cc12" ?
Result: Yes

Task: What outcome does the record of this test show for "CC[C@@H]1NC(=O)[C@@H]2CCCCN2C(=O)[C@@H]2CCCN2C(=O)[C@@H](NC(=O)[C@H](Cc2cc(F)cc(F)c2)NC(=O)Nc2ccc(C3CC3)cc2F)[C@H](C)OC(=O)[C@@H]2C[C@@H](C)CN2C1=O" ?
Result: No
